B1: 5KPH (parent)
chain: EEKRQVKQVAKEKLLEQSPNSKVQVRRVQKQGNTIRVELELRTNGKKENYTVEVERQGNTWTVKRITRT

- Variants of: B1
- Assay method text: folding stability dG (cDNA display proteolysis); higher = more stable
- Experimental parameters: PBS, room temperature
Readout name: folding stability dG (kcal/mol)
Give bare numbers, in kcal/mol.

Hi there! I need folding stability dG for each item below, if you can.
1. K11C
2. G32K
3. A10C
4. K7V
5. V23R
6. A10G
7. R27K
8. V23T

Reply:
3.75
3.11
3.26
4.86
1.43
2.6
3.62
2.51

I have 7 variants here; please give me folding stability dG for each one.
1. K47F
2. E16R
3. Q17K
4. R27H
5. K13C
6. E38T
7. R42C

Reply:
3.86
3.08
3.77
3.71
3.62
3.99
3.54

For every item below, please supply its folding stability dG.
1. E12C
2. R26A
3. T51Q

Reply:
[3.52, 3.09, 3.56]

Parameters: items (list). Returns: folding stability dG for each item.
1. Q57C
2. R42V

Reply:
1. 3.53
2. 4.14

Please state folding stability dG for every variant in the list that follows.
1. R68E
2. V37M

Reply:
1: 3.13; 2: 2.89
